Test: MTT cell viability assay
Assay type: cell-based
Details: human, K-562 myeloid leukemia cells (suspension); K-562, MTT, 72 h exposure, ± SD; read-out: In vitro cytotoxicity IC50
IC50 at 72 h overview

Compound: O=C(Nc1ccccc1C(=O)NCCc1cccc(Cl)c1)c1ccccc1Cl [Compound 4d]
Relation: =
IC50 at 72 h / µM: 99.2
--
Compound: CC(=O)Nc1ccccc1C(=O)NCCc1cccc(Cl)c1 [Compound 4a]
Relation: >
IC50 at 72 h / µM: 200
--
Compound: O=C(Cc1ccccc1)Nc1ccccc1C(=O)NCCc1cccc(Cl)c1 [Compound 4c]
Relation: =
IC50 at 72 h / µM: 27.4
--
Compound: O=C(NCCc1cccc(Cl)c1)c1ccccc1NC(=O)C(Cl)c1ccccc1 (stereo not drawn) [Compound 4e]
Relation: =
IC50 at 72 h / µM: 102
--
Compound: Nc1ccccc1C(=O)NCCc1cccc(Cl)c1 [Compound 3, 2-amino-N-(3-chlorophenethyl)benzamide]
Relation: =
IC50 at 72 h / µM: 154
--
Compound: O=C(Nc1ccccc1C(=O)NCCc1cccc(Cl)c1)c1ccccc1 [Compound 4b]
Relation: =
IC50 at 72 h / µM: 55.2

----------
Molecular target: human albumin (Homo sapiens, UniProt P02768)
Sequence (P02768 25-609): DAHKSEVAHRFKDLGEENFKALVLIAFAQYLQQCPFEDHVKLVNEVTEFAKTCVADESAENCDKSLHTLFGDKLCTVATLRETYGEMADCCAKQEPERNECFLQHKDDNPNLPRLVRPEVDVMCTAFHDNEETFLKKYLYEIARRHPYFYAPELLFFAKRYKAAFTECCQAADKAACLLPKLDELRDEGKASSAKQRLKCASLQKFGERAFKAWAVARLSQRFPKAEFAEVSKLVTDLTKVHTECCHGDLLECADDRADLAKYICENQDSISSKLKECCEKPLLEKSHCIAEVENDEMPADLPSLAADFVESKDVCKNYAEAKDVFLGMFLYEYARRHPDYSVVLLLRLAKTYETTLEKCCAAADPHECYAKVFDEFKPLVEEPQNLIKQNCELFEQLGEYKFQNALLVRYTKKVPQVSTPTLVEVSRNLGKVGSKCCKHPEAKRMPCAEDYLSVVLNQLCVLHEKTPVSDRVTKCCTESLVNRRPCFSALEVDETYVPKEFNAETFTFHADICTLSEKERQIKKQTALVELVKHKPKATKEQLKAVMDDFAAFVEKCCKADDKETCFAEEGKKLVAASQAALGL
Assay: Inhibition of albumin denaturation (anti-inflammatory activity)
Settings: heat-induced denaturation

Molecule: O=C(Nc1ccccc1C(=O)NCCc1cccc(Cl)c1)c1ccccc1Cl
Assayed system: human albumin (Homo sapiens, UniProt P02768)
IC50 / µM: 1670

Molecule: O=C(Nc1ccccc1C(=O)NCCc1cccc(Cl)c1)c1ccccc1
Assayed system: human albumin (Homo sapiens, UniProt P02768)
IC50 / µM: 1950

Molecule: Nc1ccccc1C(=O)NCCc1cccc(Cl)c1 [Compound 3, 2-amino-N-(3-chlorophenethyl)benzamide]
Assayed system: human albumin (Homo sapiens, UniProt P02768)
IC50 / µM: 2400

Molecule: O=C(Cc1ccccc1)Nc1ccccc1C(=O)NCCc1cccc(Cl)c1
Assayed system: human albumin (Homo sapiens, UniProt P02768)
IC50 / µM: 1710

----------
Experiment: MTT cell viability assay
Format: cell-based
Conditions: human, T-24 urothelial bladder carcinoma cells (adherent); T-24, MTT, 72 h exposure, ± SD; read-out: In vitro cytotoxicity IC50
IC50 at 72 h overview

Compound: O=C(NCCc1cccc(Cl)c1)c1ccccc1NC(=O)C(Cl)c1ccccc1 (stereo not drawn)
Relation: =
IC50 at 72 h / µM: 120
//
Compound: O=C(Cc1ccccc1)Nc1ccccc1C(=O)NCCc1cccc(Cl)c1
Relation: >
IC50 at 72 h / µM: 200
//
Compound: O=C(Nc1ccccc1C(=O)NCCc1cccc(Cl)c1)c1ccccc1
Relation: =
IC50 at 72 h / µM: 94.9
//
Compound: CC(=O)Nc1ccccc1C(=O)NCCc1cccc(Cl)c1
Relation: >
IC50 at 72 h / µM: 200
//
Compound: O=C(Nc1ccccc1C(=O)NCCc1cccc(Cl)c1)c1ccccc1Cl
Relation: >
IC50 at 72 h / µM: 200
//
Compound: Nc1ccccc1C(=O)NCCc1cccc(Cl)c1 [Compound 3, 2-amino-N-(3-chlorophenethyl)benzamide]
Relation: =
IC50 at 72 h / µM: 137

----------
IC50 at 72 h overview
Test: MTT cell viability assay
Format: cell-based, murine
Settings: mouse, CCL-1 normal fibroblast cells (adherent); CCL-1, MTT, 72 h exposure, ± SD; read-out: In vitro cytotoxicity IC50

Compound: O=C(Nc1ccccc1C(=O)NCCc1cccc(Cl)c1)c1ccccc1Cl
IC50 at 72 h: > 200 µM
--
Compound: Nc1ccccc1C(=O)NCCc1cccc(Cl)c1 [Compound 3, 2-amino-N-(3-chlorophenethyl)benzamide]
IC50 at 72 h: > 200 µM
--
Compound: O=C(Nc1ccccc1C(=O)NCCc1cccc(Cl)c1)c1ccccc1
IC50 at 72 h: > 200 µM
--
Compound: CC(=O)Nc1ccccc1C(=O)NCCc1cccc(Cl)c1
IC50 at 72 h: > 200 µM
--
Compound: O=C(NCCc1cccc(Cl)c1)c1ccccc1NC(=O)C(Cl)c1ccccc1 (stereo not drawn)
IC50 at 72 h: 69.1 µM
--
Compound: O=C(Cc1ccccc1)Nc1ccccc1C(=O)NCCc1cccc(Cl)c1
IC50 at 72 h: 69.5 µM
